Ref: the RNAGym collection of RNA variant scans (doi:10.7554/elife.80360)

B1: HDV Ribozyme (parent)
chain: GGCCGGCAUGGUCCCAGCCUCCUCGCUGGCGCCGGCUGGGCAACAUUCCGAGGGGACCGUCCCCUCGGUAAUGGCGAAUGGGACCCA

Variants of: B1
assay.procedure: self-cleavage, relative activity (ratio to wild type); higher = more cleavage; co-transcriptional
Where self-cleavage equals or exceeds 0.3, the correct label is Criterion met; where it does not, the label is Criterion not met.

Solved cases (5 shown):
C61G C75G ... Criterion not met
G6A C32A ... Criterion not met
U47C C48A ... Criterion met
C49G U65C ... Criterion met
G40C C63G ... Criterion not met

## Task Given the entry C58G C66G , answer whether its self-cleavage meets or surpasses 0.3.
## Result Criterion met

## Task Given the entry U72G A77G , answer whether its self-cleavage meets or surpasses 0.3.
## Result Criterion not met

## Task Given the entry G5U C41U , answer whether its self-cleavage meets or surpasses 0.3.
## Result Criterion met

## Task Given the entry G38C A87C , answer whether its self-cleavage meets or surpasses 0.3.
## Result Criterion not met

## Task Given the entry C3G G54U , answer whether its self-cleavage meets or surpasses 0.3.
## Result Criterion met

## Task Given the entry G11U C30U , answer whether its self-cleavage meets or surpasses 0.3.
## Result Criterion not met

## Task Given the entry C4A C85U , answer whether its self-cleavage meets or surpasses 0.3.
## Result Criterion met

## Task Given the entry G1A G6A , answer whether its self-cleavage meets or surpasses 0.3.
## Result Criterion met

## Task Given the entry G10U G76U , answer whether its self-cleavage meets or surpasses 0.3.
## Result Criterion met

## Task Given the entry G5U G29A , answer whether its self-cleavage meets or surpasses 0.3.
## Result Criterion not met

## Task Given the entry G2C G11U , answer whether its self-cleavage meets or surpasses 0.3.
## Result Criterion not met

## Task Given the entry C7G G52C , answer whether its self-cleavage meets or surpasses 0.3.
## Result Criterion not met

## Task Given the entry C66A G82C , answer whether its self-cleavage meets or surpasses 0.3.
## Result Criterion met

## Task Given the entry G17C U47G , answer whether its self-cleavage meets or surpasses 0.3.
## Result Criterion not met

## Task Given the entry C18G G73C , answer whether its self-cleavage meets or surpasses 0.3.
## Result Criterion not met

## Task Given the entry C19G U27A , answer whether its self-cleavage meets or surpasses 0.3.
## Result Criterion not met

## Task Given the entry G6C C86G , answer whether its self-cleavage meets or surpasses 0.3.
## Result Criterion not met

## Task Given the entry U37G A56U , answer whether its self-cleavage meets or surpasses 0.3.
## Result Criterion not met
